B1: glmS ribozyme (parent)
chain: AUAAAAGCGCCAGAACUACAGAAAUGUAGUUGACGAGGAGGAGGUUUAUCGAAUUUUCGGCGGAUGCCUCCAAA

Variants of: B1
ASSAY OVERVIEW: self-cleavage kobs at 2500 uM GlcN6P; higher = faster cleavage; RNA array
CONDITION LABEL: with glucosamine-6-phosphate
This sample holds only a part of the variants without activity.
ATTRIBUTE MEASURED: self-cleavage kobs at 2500 uM GlcN6P

   variant_designation                    attribute_measured       result
0       A14U G29A G63U  self-cleavage kobs at 2500 uM GlcN6P  < 1e-05 s⁻¹
1       G41U U65A C68G  self-cleavage kobs at 2500 uM GlcN6P  < 1e-05 s⁻¹
2  G29U G32C U47C C67G  self-cleavage kobs at 2500 uM GlcN6P  < 1e-05 s⁻¹
3            C34U U55C  self-cleavage kobs at 2500 uM GlcN6P  < 1e-05 s⁻¹
4            U46A G62A  self-cleavage kobs at 2500 uM GlcN6P  < 1e-05 s⁻¹

Q: Return reported self-cleavage kobs at 2500 uM GlcN6P; argument: G38A U49C
A: < 1e-05 s⁻¹

Q: Need self-cleavage kobs at 2500 uM GlcN6P of A6G G7A C10U G44C G60C , thanks.
A: < 1e-05 s⁻¹

Q: Endpoint output: self-cleavage kobs at 2500 uM GlcN6P of A6C G7C G63A . Value?
A: < 1e-05 s⁻¹
